Exercise: for every item that follows, state its recorded %Inh.
# System: PIK3CD
# DETAILS: concentration: 1 μM, replicates: in singlicate; n = 1;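 further: KINOMEscan kinase panel screen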
One number for each entry, in %.

Example entries and their recorded answers appear below.
>>> reported_result("CS(=O)(=O)c1cccc(CNc2nc(Nc3ccc4c(c3)CCC(=O)N4)ncc2C(F)(F)F)c1")
0
>>> reported_result("COc1cccc(NC(=O)NCCNc2ccnc(Nc3ccc(F)cc3)n2)c1 [GSK1379879]")
0
>>> reported_result("Cc1cc(-c2c(-c3ccc(F)cc3)ncn2CCCN2CCOCC2)nc(N)n1 [SB-222517]")
0
>>> reported_result("Cc1cccc(Nc2nc(NCCN)ncc2C(N)=O)c1 [GSK1292139]")
2
>>> reported_result("O=C(O)C(F)(F)F.O=c1[nH]ccc2nc(N[C@@H]3CCNC3)nc(Nc3cc(Cl)cc(Cl)c3)c12 [GSK2188764]")
43
>>> reported_result("Nc1cccc(-c2ccc3c(N)n[nH]c3c2)c1 [GSK2193613]")
2

# batch: return %Inh for each of the 2 compounds below
1. Cc1ccc(Nc2ccnc(Nc3ccc(C)c(F)c3)n2)cc1O.Cl [GW582868]
2. COc1ccc(C)c(Nc2ccnc(Nc3ccc(-c4cnc[nH]4)cc3)n2)c1.Cl [GW784041]

Solution:
[11, 0]

For each of the items listed, what is its %Inh?
1. Cc1ccc(NC(=O)c2ccc(Cl)c(Cl)c2)cc1-c1ccc(C(=O)Nc2ccncc2)cc1 [GSK1398460]
2. N#CC1(c2cccc(C(=O)Nc3cccc(Oc4ccc5nc(NC(=O)C6CC6)sc5n4)c3)c2)CC1
3. CN(C)c1ncnc2nc[nH]c12 [SKF-31736]
4. Cc1ccc(C)c(NC(=O)Nc2ccc(C)c(-c3ccc(C(=O)Nc4ccncc4)cc3)c2)c1 [GSK1398473]

Solution:
0
0
0
0

Please give %Inh, item by item, for the list that follows.
1. CN(C)CCNS(=O)(=O)c1ccc(-c2ccnc3[nH]ccc23)cc1 [GSK977620]
2. Fc1cc(Cl)ccc1Nc1ccnc2cc(-c3ccc(CN4CCSCC4)o3)ccc12 [GW560106]
3. COC(=O)Nc1nc2ccc(Oc3ccc(NC(=O)Nc4cc(C(F)(F)F)ccc4F)cc3)cc2[nH]1.Cl [GW654607]
4. O=C(Nc1n[nH]c2nc(-c3ccccc3)ccc12)C1CC1 [SB-708999]

Solution:
9
9
0
41

Please give %Inh, item by item, for the list that follows.
1. CCNc1nccc(-c2c(-c3ccc(F)cc3)ncn2C2CCN(C)CC2)n1
2. Cc1ccc(-c2ccc3occ(-c4ccc(S(C)=O)cc4)c3c2)nn1 (stereo not drawn)

Solution:
1. 0
2. 2

* * *

# System: IKK-epsilon
# Construct: gene IKBKE
# DETAILS: concentration: 1 μM, replicates: in singlicate; n = 1
// boundary case: %Inh equal to 40% maps to n; strictly smaller maps to y

Exercise: Determine whether this compound shows %Inh lower than 40% (ties excluded): Cn1cc(-c2ccc3c(c2)CCN3C(=O)Cc2cc(F)cc(C(F)(F)F)c2)c2c(N)ncnc21
Solution: n

* * *

# System: ABL1-phosphorylated
# DETAILS: concentration: 1 μM, replicates: in singlicate; n = 1
ASSAY ENDPOINT: %Inh (%)
Answers are plain numbers, in %.

Example results:
>>> reported_result("Cl.O=C(Nc1ccc(Oc2ccc3[nH]c(NC(=O)c4ccco4)nc3c2)cc1)Nc1cc(C(F)(F)F)ccc1F [GW683134]")
76
>>> reported_result("Cc1ccc(-c2ccc3occ(-c4ccc(S(C)=O)cc4)c3c2)nn1 (centres unmarked)")
29
>>> reported_result("Cc1ccc(C)c(NC(=O)Nc2ccc(C)c(-c3ccc(C(=O)Nc4ccncc4)cc3)c2)c1 [GSK1398473]")
0
>>> reported_result("Nc1ncc(-c2cn[nH]c2)c2scc(-c3ccc4c(c3)CCN4C(=O)Cc3ccccc3)c12 [GSK2593067]")
81
>>> reported_result("O=C(O)C(F)(F)F.O=c1[nH]ccc2nc(N[C@@H]3CCNC3)nc(Nc3ccc4c(c3)S(=O)(=O)CC4)c12 [GSK2181306]")
66
>>> reported_result("Cc1ccc(NC(=O)c2cccc(N3CCCCC3)c2)cc1-c1ccc(C(=O)NCC2CC2)cc1 [GSK1917008]")
0
>>> reported_result("N#Cc1cnc2cc(-c3cnc(CNCCN4CCOCC4)s3)ccc2c1Nc1ccc(Oc2ccccc2)cc1 [GW664114]")
49

Turning now to a further molecule:
Exercise: Form entry - test system: ABL1-phosphorylated; read-out: %Inh; molecule: O=C1NC(=O)C(c2ccccc2Cl)=C1Nc1cccc(Cl)c1 [SB-342409]
Solution: 9

Value source: paper PMC5540273
